Molecular target: T1, EsCas13d, nuclease-dead (Eubacterium siraeum, UniProt B0MS50, R295A;H300A;R849A;H854A)
T1 sequence: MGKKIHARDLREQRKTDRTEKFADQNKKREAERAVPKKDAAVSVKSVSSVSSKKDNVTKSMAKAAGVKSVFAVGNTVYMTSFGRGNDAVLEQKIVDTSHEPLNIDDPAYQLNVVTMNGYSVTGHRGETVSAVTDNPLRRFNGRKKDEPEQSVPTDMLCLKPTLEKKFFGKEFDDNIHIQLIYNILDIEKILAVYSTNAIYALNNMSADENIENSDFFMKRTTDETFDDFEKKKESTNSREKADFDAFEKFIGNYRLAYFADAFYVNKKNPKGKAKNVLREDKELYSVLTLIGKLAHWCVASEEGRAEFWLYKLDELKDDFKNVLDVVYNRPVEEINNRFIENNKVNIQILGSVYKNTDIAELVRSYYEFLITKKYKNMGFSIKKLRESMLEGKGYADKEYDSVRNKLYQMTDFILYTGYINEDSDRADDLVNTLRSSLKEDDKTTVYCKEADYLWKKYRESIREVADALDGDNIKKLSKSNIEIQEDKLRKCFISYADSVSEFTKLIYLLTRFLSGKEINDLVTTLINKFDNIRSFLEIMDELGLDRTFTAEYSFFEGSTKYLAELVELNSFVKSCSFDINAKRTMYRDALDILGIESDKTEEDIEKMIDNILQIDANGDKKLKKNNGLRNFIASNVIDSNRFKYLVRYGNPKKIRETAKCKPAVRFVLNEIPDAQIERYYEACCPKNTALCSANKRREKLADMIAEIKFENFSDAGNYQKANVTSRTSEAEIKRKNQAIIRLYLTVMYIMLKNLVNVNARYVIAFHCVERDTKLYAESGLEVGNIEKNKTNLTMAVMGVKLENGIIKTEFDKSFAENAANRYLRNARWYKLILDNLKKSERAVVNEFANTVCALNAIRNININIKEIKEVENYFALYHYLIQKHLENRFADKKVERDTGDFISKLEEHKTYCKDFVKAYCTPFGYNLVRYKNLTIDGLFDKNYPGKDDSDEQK
Assay: crRNA (strand 1, pre-loaded); Mg2+; 40 mM Tris-HCl pH 7.5, 150 mM NaCl, 6 mM MgCl2, 1 mM DTT, 0.1% Tween-20, 0.2 mg/ml BSA; 25 C; 10 min per concentration, then washed
Details: tags: His6-TwinStrep-SUMO cleaved; N-terminal SNAP kept (SNAP-Surface 488); label: 3' end held by stalled T7 RNA polymerase
measurement_label: Kd (nM)

binder="target 1 MT 5'PFS UCG 3'PFS AUC (mixed) RNA 1: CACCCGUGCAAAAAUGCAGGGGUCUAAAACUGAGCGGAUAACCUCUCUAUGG RNA 2: GGGAAUGGAUCCACAUCUACGAAUUCUCGCCAUAGAGAGGUUAUCCGCUCAAUCAGAUCGGAAGAGCACACGU" measurement_label=Kd unit=nM reported=42
binder="target 1 complement block 2-9 (mixed) RNA 1: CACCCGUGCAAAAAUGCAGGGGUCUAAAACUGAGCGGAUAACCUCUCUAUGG RNA 2: GGGAAUGGAUCCACAUCUACGAAUUCGUACCAUAGAGAGGUUUAGGCGAGACCGAGAUCGGAAGAGCACACGU" measurement_label=Kd unit=nM reported=7.29
binder="target 1 G5A,G12C (mixed) RNA 1: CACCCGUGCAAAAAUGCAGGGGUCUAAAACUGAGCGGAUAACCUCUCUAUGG RNA 2: GGGAAUGGAUCCACAUCUACGAAUUCGUACCAUAGAGAGCUUAUCCACUCACCGAGAUCGGAAGAGCACACGU" measurement_label=Kd unit=nM reported=13.5
binder="target 2 MT 5'PFS UCG 3'PFS CCG (mixed) RNA 1: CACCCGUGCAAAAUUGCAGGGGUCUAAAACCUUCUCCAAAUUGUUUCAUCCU RNA 2: GGGAAUGGAUCCACAUCUACGAAUUCUCGAGGAUGAAACAAUUUGGAGAAGCCGAGAUCGGAAGAGCACACGU" measurement_label=Kd unit=nM reported=90
